Assay: Pharmacokinetics after oral administration
Format: in vivo, cynomolgus monkey
Conditions: male, cynomolgus monkey, plasma; 0.05 mg/kg oral, calcium salt hydrate crystal (Sample 162a) suspension, n=2; read-out: AUC0-24 h
readout: AUC(0-t)

The compound listed as Cc1cc(-n2nc3c(c2-n2ccn(-c4ccc5c(cnn5C)c4F)c2=O)[C@H](C)N(C(=O)c2cc4cc([C@H]5CCOC(C)(C)C5)ccc4n2[C@@]2(c4noc(=O)[nH]4)C[C@@H]2C)CC3)cc(C)c1F [Example Compound 67] has a reported AUC(0-t) of 23.7 ng·h/mL

* * *

Target: human GLP1R (Homo sapiens (Human))
Assay: In vitro cAMP signal activation in human GLP1R stably-expressing cell line (hGLP1R-HEK293)
Settings: cAMP concentration in hGLP1R-HEK293; 100% = 1 nM human GLP-1 (7-37)
readout: EC50 (nM)
# output: bare number, implied unit nM

Guide cases for EC50, answers given:
>>> meas_value("Cc1cc(-n2nc3c(c2-n2ccn(-c4ccc5c(cnn5C)c4F)c2=O)[C@H](C)N(C(=O)c2cc4cc(C5CCOCC5)ccc4n2[C@@]2(c4noc(=O)[nH]4)C[C@@H]2C)CC3)cc(C)c1F [Example 23]")
1.8
>>> meas_value("Cc1cc(-n2nc3c(c2-n2ccn(-c4ccc5c(cnn5CC(F)(F)F)c4F)c2=O)[C@H](C)N(C(=O)c2cc4cc(C5CCOCC5)ccc4n2[C@@]2(c4noc(=O)[nH]4)C[C@@H]2C)CC3)cc(C)c1Cl [Example 44]")
1.5

Proceeding to the next compound to report its EC50.
The compound listed as Cc1cc(-n2nc3c(c2-n2ccn(-c4ccc5c(cnn5C)c4Cl)c2=O)[C@H](C)N(C(=O)c2cc4cc(C5CCOCC5)ccc4n2[C@@]2(c4noc(=O)[nH]4)C[C@@H]2C)CC3)cc(C)c1F [compound 72] has a reported EC50 of 2.3

* * *

Test: Pharmacokinetics after oral administration
Assay type: in vivo, cynomolgus monkey
Conditions: male, cynomolgus monkey, plasma; 0.15 mg/kg oral, calcium salt hydrate crystal (Sample 162a) suspension, n=2; read-out: AUC0-24 h
readout: AUC(0-t) (ng·h/mL)
# output: bare number, implied unit ng·h/mL

The compound listed as Cc1cc(-n2nc3c(c2-n2ccn(-c4ccc5c(cnn5C)c4F)c2=O)[C@H](C)N(C(=O)c2cc4cc([C@H]5CCOC(C)(C)C5)ccc4n2[C@@]2(c4noc(=O)[nH]4)C[C@@H]2C)CC3)cc(C)c1F [Example Compound 67] has a reported AUC(0-t) of 135

* * *

Biological target: human GLP1R (Homo sapiens (Human))
Assay: In vitro cAMP signal activation in human GLP1R stably-expressing cell line (hGLP1R-HEK293)
Settings: cAMP concentration in hGLP1R-HEK293; 100% = 1 nM human GLP-1 (7-37)
Some compounds, each annotated with its measured pEC50.
pEC50 (log units): -log10 of the concentration in mol/L.

>>> meas_value("CCc1nccc(-c2ccc3c(c2)cc(C(=O)N2CCc4nn(-c5cc(C)c(F)c(C)c5)c(-n5ccn(-c6ccc7c(cnn7C)c6)c5=O)c4C2)n3[C@@]2(c3noc(=O)[nH]3)C[C@@H]2C)c1C")
8.25

Proceeding to the next compound to report its pEC50.
The compound listed as COc1cc(-n2ccn(-c3c4c(nn3-c3cc(C)c(F)c(C)c3)CCN(C(=O)c3cc5cc(C6CCOCC6)ccc5n3[C@@]3(c5noc(=O)[nH]5)C[C@@H]3C)[C@H]4C)c2=O)ccc1OC(C)(C)CO has a reported pEC50 of 8.72

* * *

Test: Pharmacokinetics after oral administration
Assay type: in vivo, cynomolgus monkey
Details: male, cynomolgus monkey, plasma; 1.35 mg/kg oral, calcium salt hydrate crystal (Sample 162a) suspension, n=2; read-out: AUC0-24 h
readout: AUC(0-t) (ng·h/mL)
# output: bare number, implied unit ng·h/mL

The compound listed as Cc1cc(-n2nc3c(c2-n2ccn(-c4ccc5c(cnn5C)c4F)c2=O)[C@H](C)N(C(=O)c2cc4cc([C@H]5CCOC(C)(C)C5)ccc4n2[C@@]2(c4noc(=O)[nH]4)C[C@@H]2C)CC3)cc(C)c1F has a reported AUC(0-t) of 1040

* * *

Biological target: human GLP1R (Homo sapiens (Human), UniProt P43220)
Sequence (P43220 24-463): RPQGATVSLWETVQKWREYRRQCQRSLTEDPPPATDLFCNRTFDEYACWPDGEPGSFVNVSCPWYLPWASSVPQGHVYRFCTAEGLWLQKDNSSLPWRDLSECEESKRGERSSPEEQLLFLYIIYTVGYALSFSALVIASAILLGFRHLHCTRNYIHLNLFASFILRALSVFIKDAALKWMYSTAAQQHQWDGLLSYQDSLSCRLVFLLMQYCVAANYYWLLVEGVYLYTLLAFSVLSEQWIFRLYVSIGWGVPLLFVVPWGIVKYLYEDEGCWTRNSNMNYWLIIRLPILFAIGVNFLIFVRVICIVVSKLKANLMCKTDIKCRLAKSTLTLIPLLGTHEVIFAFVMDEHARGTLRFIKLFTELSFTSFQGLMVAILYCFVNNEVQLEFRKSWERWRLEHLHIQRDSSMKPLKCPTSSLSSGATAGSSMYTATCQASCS
Test: In vitro cAMP signal activation in human GLP1R stably-expressing cell line (hGLP1R-HEK293)
Details: cAMP concentration in hGLP1R-HEK293; 100% = 1 nM human GLP-1 (7-37)
Some molecules, each annotated with its measured EC50.
Kindly report the value followed by its unit.

>>> meas_value("Cc1cc(-n2nc3c(c2-n2ccn(-c4cc5cnn(C)c5cc4F)c2=O)[C@H](C)N(C(=O)c2cc4cc(C5CCOCC5)ccc4n2[C@@]2(c4noc(=O)[nH]4)C[C@@H]2C)CC3)cc(C)c1F")
"2.3 nM"
>>> meas_value("Cc1cc(-n2nc3c(c2-n2ccn(-c4ccc5c(cnn5CC5(C)COC5)c4)c2=O)[C@H](C)N(C(=O)c2cc4cc(C5CCOCC5)ccc4n2[C@@]2(c4noc(=O)[nH]4)C[C@@H]2C)CC3)cc(C)c1F")
"1 nM"

The molecule listed as CC[C@H]1C[C@@H](c2ccc3c(c2)cc(C(=O)N2CCc4nn(-c5cc(C)c(F)c(C)c5)c(-n5ccn(-c6ccc7c(cnn7C)c6)c5=O)c4C2)n3[C@@]2(c3noc(=O)[nH]3)C[C@@H]2C)CCO1 has a reported EC50 of 1.4 nM

The molecule listed as CCc1nccc(-c2ccc3c(c2)cc(C(=O)N2CCc4nn(-c5cc(C)c(F)c(C)c5)c(-n5ccn(-c6ccc7c(C)nn(C)c7c6)c5=O)c4C2)n3[C@@]2(c3noc(=O)[nH]3)C[C@@H]2C)c1C has a reported EC50 of 6.1 nM

The molecule listed as CCc1nccc(-c2ccc3c(c2)cc(C(=O)N2CCc4nn(-c5cc(C)c(F)c(C)c5)c(-n5ccn(-c6ccc(OC)c(F)c6)c5=O)c4C2)n3[C@@]2(c3noc(=O)[nH]3)C[C@@H]2C)c1C has a reported EC50 of 12 nM

* * *

Molecular target: human GLP1R (Homo sapiens (Human), UniProt P43220)
Assay: In vitro cAMP signal activation in human GLP1R stably-expressing cell line (hGLP1R-HEK293)
Settings: cAMP concentration in hGLP1R-HEK293; 100% = 1 nM human GLP-1 (7-37)
Some compounds, each annotated with its measured pEC50.
pEC50 (log units): -log10 of the concentration in mol/L.

Guide cases for pEC50, answers given:
>>> meas_value("Cc1cc(C)cc(-n2nc3c(c2-n2ccn(-c4ccc5c(cnn5C)c4)c2=O)CN(C(=O)c2cc4cc(C5CCOC(C)(C)C5)ccc4n2[C@@]2(c4noc(=O)[nH]4)C[C@@H]2C)CC3)c1 (stereo partly drawn)")
8.31
>>> meas_value("Cc1cc(-n2nc3c(c2-n2ccn(-c4ccc5c(cnn5C)c4)c2=O)CN(C(=O)c2cc4cc(N5CCOC6(CC6)C5)ccc4n2[C@@]2(c4noc(=O)[nH]4)C[C@@H]2C)CC3)cc(C)c1F")
8.17

The compound listed as Cc1cc(-n2nc3c(c2-n2ccn(-c4ccc5c(cnn5[C@@H]5CCOC5)c4)c2=O)CN(C(=O)c2cc4cc(C5CCOCC5)ccc4n2[C@@]2(c4noc(=O)[nH]4)C[C@@H]2C)CC3)cc(C)c1F has a reported pEC50 of 8.60

* * *

Target: human GLP1R (Homo sapiens (Human), UniProt P43220)
Test: In vitro cAMP signal activation in human GLP1R stably-expressing cell line (hGLP1R-HEK293)
Conditions: cAMP concentration in hGLP1R-HEK293; 100% = 1 nM human GLP-1 (7-37)
Description: <Test Example 1> Measurement of In Vitro cAMP Signal Activation of a Compound in Human GLP1R A human GLP1R stably-expressing cell line (hGLP1R-HEK293) was used in the experiment. […] hGLP1R-HEK293 was seeded in 96 well plates at 2.0×10^4 cells per well and cultured over night. […] The cAMP concentration was quantified using cAMP HiRange kit (Cisbio Bioassays). […]
Some compounds, each annotated with its measured pEC50.
pEC50 (log units): -log10 of the concentration in mol/L.

Guide cases for pEC50, answers given:
>>> meas_value("CC[C@H]1C[C@]1(c1noc(=O)[nH]1)n1c(C(=O)N2CCc3nn(-c4cc(C)c(F)c(C)c4)c(-n4ccn(-c5ccc6c(cnn6C)c5)c4=O)c3C2)cc2cc(C3CCOCC3)ccc21")
8.44
>>> meas_value("Cc1cc(-n2nc3c(c2-n2ccn(-c4cc5cnn(C)c5cc4F)c2=O)[C@H](C)N(C(=O)c2cc4cc([C@H]5CCOC(C)(C)C5)ccc4n2[C@@]2(c4noc(=O)[nH]4)C[C@@H]2C)CC3)cc(C)c1F")
8.82
>>> meas_value("Cc1cc(-n2nc3c(c2-n2ccn(-c4ccc5c(cnn5CC5(C)COC5)c4F)c2=O)[C@H](C)N(C(=O)c2cc4cc([C@H]5CCOC(C)(C)C5)ccc4n2[C@@]2(c4noc(=O)[nH]4)C[C@@H]2C)CC3)cc(C)c1F")
8.60
>>> meas_value("COCCn1ncc2cc(-n3ccn(-c4c5c(nn4-c4cc(C)c(F)c(C)c4)CCN(C(=O)c4cc6cc(-c7ccnc(OC)c7C)ccc6n4[C@@]4(c6noc(=O)[nH]6)C[C@@H]4C)[C@H]5C)c3=O)ccc21")
8.96
>>> meas_value("Cc1cc(-n2nc3c(c2-n2ccn(-c4ccc5c(cnn5[C@H]5CCOC5)c4)c2=O)[C@H](C)N(C(=O)c2cc4cc(C5CCOCC5)ccc4n2[C@@]2(c4noc(=O)[nH]4)C[C@@H]2C)CC3)cc(C)c1F")
8.64

The compound listed as Cc1cc(-n2nc3c(c2-n2ccn(-c4ccc5c(cnn5C)c4)c2=O)CN(C(=O)c2cc4cc(C5CCOC6(CCCC6)C5)ccc4n2[C@@]2(c4noc(=O)[nH]4)C[C@@H]2C)CC3)cc(C)c1F (some centres unmarked) has a reported pEC50 of 8.21

The compound listed as Cc1cc(-n2nc3c(c2-n2ccn(-c4ccc5c(cnn5C)c4Cl)c2=O)[C@H](C)N(C(=O)c2cc4cc([C@H]5CCOC(C)(C)C5)ccc4n2[C@@]2(c4noc(=O)[nH]4)C[C@@H]2C)CC3)cc(C)c1F has a reported pEC50 of 8.74

The compound listed as Cc1cc(-n2nc3c(c2-n2ccn(-c4ccc5c(cnn5C)c4)c2=O)[C@H](C)N(C(=O)c2cc4cc([C@H]5CCOC(C)(C)C5)ccc4n2[C@@]2(c4noc(=O)[nH]4)C[C@@H]2C)CC3)ccc1F has a reported pEC50 of 8.54

The compound listed as COc1nccc(-c2ccc3c(c2)cc(C(=O)N2CCc4nn(-c5cc(C)c(F)c(C)c5)c(-n5ccn(-c6ccc7c(cnn7C)c6)c5=O)c4[C@@H]2C)n3[C@@]2(c3noc(=O)[nH]3)C[C@@H]2C)c1C has a reported pEC50 of 8.57

The compound listed as COCCn1ncc2cc(-n3ccn(-c4c5c(nn4-c4ccc(F)c(C)c4)CCN(C(=O)c4cc6cc(N7CCOC(C)(C)C7)ccc6n4[C@@]4(c6noc(=O)[nH]6)C[C@@H]4C)C5)c3=O)ccc21 has a reported pEC50 of 8.12

The compound listed as Cc1cc(-n2nc3c(c2-n2ccn(-c4ccc5c(cnn5C)c4F)c2=O)[C@H](C)N(C(=O)c2cc4cc([C@H]5CCO[C@@H](C)C5)ccc4n2[C@@]2(c4noc(=O)[nH]4)C[C@@H]2C)CC3)cc(C)c1F has a reported pEC50 of 8.62

The compound listed as COCCn1ncc2c(F)c(-n3ccn(-c4c5c(nn4-c4ccc(F)c(C)c4)CCN(C(=O)c4cc6cc(C7CCOCC7)ccc6n4[C@@]4(c6noc(=O)[nH]6)C[C@@H]4C)[C@H]5C)c3=O)ccc21 has a reported pEC50 of 8.70

The compound listed as CCc1nccc(-c2ccc3c(c2)cc(C(=O)N2CCc4nn(-c5cc(C)c(F)c(C)c5)c(-n5ccn(-c6ccc7c(C)nsc7c6)c5=O)c4C2)n3[C@@]2(c3noc(=O)[nH]3)C[C@@H]2C)c1C has a reported pEC50 of 8.21

The compound listed as Cc1cc(-n2nc3c(c2-n2ccn(-c4ccc5c(cnn5CC(C)(C)O)c4F)c2=O)[C@H](C)N(C(=O)c2cc4cc(C5CCOCC5)ccc4n2[C@@]2(c4noc(=O)[nH]4)C[C@@H]2C)CC3)cc(C)c1F has a reported pEC50 of 8.85
